System: Normal Kunming (KM) mice
Assay: multiple OGTT (mOGTT): hypoglycemic duration after a single administration
Assay type: in vivo
Settings: monomeric peptides, single injection at the same dose (1.126 nmol), subcutaneous
Measure name: Hypoglycemic (days)

- His-aAib-Glu-Gly-Thr-Phe-Thr-Cys-Asp-Val-Ser-Ser-Tyr-Leu-Glu-Gly-Gln-Ala-Ala-Lys[N-ϵ-(N-α-Palmitoyl-γ-glutamyl)]-Glu-Phe-Ile-Ala-Trp-Leu-Val-Arg-Gly-Arg-Gly-OH (HXEGTFTCDVSSYLEGQAAXEFIAWLVRGRG; Aib; palmitoyl-gamma-Glu on Lys; C-terminal acid; Sequence is synthesized; (2)..(2) Xaa is aAib; (20)..(20) Xaa is 26Lys[N-e-(N-a-palmitoyl-L-g-glutamyl)]; (31)..(31) C-terminal) [G8 series 60]: 2
- His-βAla-Glu-Gly-Thr-Phe-Thr-Cys-Asp-Val-Ser-Ser-Tyr-Leu-Glu-Gly-Gln-Ala-Ala-Lys[N-ϵ-(N-α-oleoyl-L-γ-glutamyl)]-Glu-Phe-Ile-Ala-Trp-Leu-Val-Arg-Gly-Arg-Gly-NH2 (HXEGTFTCDVSSYLEGQAAXEFIAWLVRGRG; beta-amino acid; oleoyl-gamma-Glu on Lys; C-terminal amide; Sequence is synthesized; (2)..(2) Xaa is bAla; (20)..(20) Xaa is 26Lys[N-e-(N-a-oleoyl-L-g-glutamyl)]; (31)..(31) N-terminal) [G8 series 68]: 4

All figures here come from patent US20240150423A1.
